Attribution: paper PMC10447267

System: CYP3A4/5
protocolDetails: CYP3A4/5 inhibition in pooled human liver microsomes
Format: in vitro ADME
particulars: both sexes, human, microsomes, Testosterone 1’-hydroxylation; 30-min preincubation; 49.5 µM; read-out: Time-dependent inhibition, maximum inhibition at 49.5 µM
attributeMeasured: inhibition at 49.5 µM (%)
Write it as a number; the unit % goes unstated.

Request: What does the data say about its inhibition at 49.5 µM? Entry: CN1CCC(COc2cnc(-c3cccc(Cn4nc(-c5cccc(C#N)c5)ccc4=O)c3)nc2)CC1
Response: 59

---

testedOn: CYP2D6 (Homo sapiens)
Construct: pooled mixed-gender human liver microsomes; from tissue; host or cells: pooled mixed-gender human liver microsomes
Sequence (P10635 whole entry): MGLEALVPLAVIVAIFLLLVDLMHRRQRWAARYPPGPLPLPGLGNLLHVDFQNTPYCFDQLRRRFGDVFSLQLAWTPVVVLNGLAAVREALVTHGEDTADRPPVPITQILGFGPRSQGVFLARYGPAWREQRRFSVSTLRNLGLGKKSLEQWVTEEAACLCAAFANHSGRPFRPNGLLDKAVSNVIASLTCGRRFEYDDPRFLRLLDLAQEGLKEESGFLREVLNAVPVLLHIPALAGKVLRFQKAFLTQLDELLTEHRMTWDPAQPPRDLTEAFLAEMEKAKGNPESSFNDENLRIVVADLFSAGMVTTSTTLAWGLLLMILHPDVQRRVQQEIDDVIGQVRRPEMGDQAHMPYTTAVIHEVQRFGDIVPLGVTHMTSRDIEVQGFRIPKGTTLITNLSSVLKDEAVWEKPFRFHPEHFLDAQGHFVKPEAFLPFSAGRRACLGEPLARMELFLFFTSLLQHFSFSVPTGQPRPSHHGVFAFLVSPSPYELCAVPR
protocolDetails: in vitro
Assay type: in vitro ADME
particulars: both sexes, human, microsomes, Dextromethorphan O-demethylation; zero-minute preincubation; 49.5 µM; read-out: Direct inhibition, maximum inhibition at 49.5 µM
attributeMeasured: inhibition at 49.5 µM (%)
Hi! Could you send only the number? It should be in %, unit omitted.

Request: Can you share its inhibition at 49.5 µM? I mean this compound: CN1CCC(COc2cnc(-c3cccc(Cn4nc(-c5cccc(C#N)c5)ccc4=O)c3)nc2)CC1 [tepotinib]
Response: 50

---

testedOn: CYP2C19 (Homo sapiens)
Construct: pooled mixed-gender human liver microsomes; from tissue; host or cells: pooled mixed-gender human liver microsomes
Sequence (P33261 whole entry): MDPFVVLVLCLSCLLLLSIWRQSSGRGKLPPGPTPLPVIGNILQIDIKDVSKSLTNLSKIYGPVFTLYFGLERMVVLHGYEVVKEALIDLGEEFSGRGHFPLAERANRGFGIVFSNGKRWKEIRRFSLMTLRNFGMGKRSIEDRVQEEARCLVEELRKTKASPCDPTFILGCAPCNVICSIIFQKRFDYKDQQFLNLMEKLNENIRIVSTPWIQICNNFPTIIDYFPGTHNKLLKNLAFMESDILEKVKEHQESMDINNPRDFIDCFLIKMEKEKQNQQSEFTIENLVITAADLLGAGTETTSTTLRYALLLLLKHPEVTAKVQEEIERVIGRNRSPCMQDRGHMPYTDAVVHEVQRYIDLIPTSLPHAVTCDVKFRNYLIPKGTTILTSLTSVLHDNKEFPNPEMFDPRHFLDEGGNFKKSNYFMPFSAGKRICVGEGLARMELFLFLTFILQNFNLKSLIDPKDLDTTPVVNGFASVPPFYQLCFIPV
protocolDetails: CYP2C19 inhibition in pooled human liver microsomes
Assay type: in vitro ADME
particulars: S-Mephenytoin 4-hydroxylation; 30-min preincubation; read-out: Time-dependent inhibition IC50
attributeMeasured: IC50
A bare number is not enough; add the unit after it.

Request: Recorded IC50 for CN1CCC(COc2cnc(-c3cccc(Cn4nc(-c5cccc(C#N)c5)ccc4=O)c3)nc2)CC1 [tepotinib] , please?
Response: 29 µM

---

Tested on: CYP3A4/5
protocolDetails: CYP3A4/5 inhibition in pooled human liver microsomes
Format: in vitro ADME
particulars: both sexes, human, microsomes, human liver microsomes; Midazolam 6β-hydroxylation; zero-minute preincubation; read-out: Direct inhibition IC50
Experimental: The potential of tepotinib and MSC2571109A to inhibit CYP450 enzymes CYP1A2, 2A6, 2B6, 2C8, 2C9, 2C19, 2D6, 2E1, and 3A4/5 in vitro was evaluated using CYP-catalyzed reactions in pooled mixed-gender human liver microsomes using specific substrates and liquid chromatography/tandem mass spectrometry (LC–MS/MS) readouts. […] Assessments of mechanism-based inhibition of the above listed CYP450 enzymes were conducted after pre-incubation of the microsomes with tepotinib or MSC2571109A. […]
attributeMeasured: pIC50
Scale for pIC50: -log10 of concentration given in mol/L; no unit attached.

Request: Give pIC50 (CYP3A4/5) of the following compound: CN1CCC(COc2cnc(-c3cccc(Cn4nc(-c5cccc(C#N)c5)ccc4=O)c3)nc2)CC1 [tepotinib]
Response: 4.60

---

testedOn: CYP2C9 (Homo sapiens)
Sequence (P11712 whole entry): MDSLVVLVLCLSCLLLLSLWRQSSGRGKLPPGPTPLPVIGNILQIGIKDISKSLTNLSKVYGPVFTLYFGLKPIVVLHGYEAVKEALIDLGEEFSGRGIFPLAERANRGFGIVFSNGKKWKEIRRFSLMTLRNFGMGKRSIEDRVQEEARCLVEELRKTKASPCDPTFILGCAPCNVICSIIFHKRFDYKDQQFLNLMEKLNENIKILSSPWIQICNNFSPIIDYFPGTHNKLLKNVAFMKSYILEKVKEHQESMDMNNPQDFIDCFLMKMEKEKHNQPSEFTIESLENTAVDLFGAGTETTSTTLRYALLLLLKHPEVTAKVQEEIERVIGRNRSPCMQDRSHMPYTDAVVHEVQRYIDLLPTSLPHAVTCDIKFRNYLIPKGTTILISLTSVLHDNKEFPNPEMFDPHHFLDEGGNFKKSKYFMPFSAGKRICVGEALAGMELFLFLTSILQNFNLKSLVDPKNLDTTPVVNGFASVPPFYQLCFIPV
attributeMeasured: Ki

Request: Given the entry CN1CCC(COc2cnc(-c3cccc(Cn4nc(-c5cccc(C#N)c5)ccc4=O)c3)nc2)CC1 [tepotinib] , report its measured Ki.
Response: ≥ 11 µM

---

testedOn: UniProt:P08684
Sequence (P08684 whole entry): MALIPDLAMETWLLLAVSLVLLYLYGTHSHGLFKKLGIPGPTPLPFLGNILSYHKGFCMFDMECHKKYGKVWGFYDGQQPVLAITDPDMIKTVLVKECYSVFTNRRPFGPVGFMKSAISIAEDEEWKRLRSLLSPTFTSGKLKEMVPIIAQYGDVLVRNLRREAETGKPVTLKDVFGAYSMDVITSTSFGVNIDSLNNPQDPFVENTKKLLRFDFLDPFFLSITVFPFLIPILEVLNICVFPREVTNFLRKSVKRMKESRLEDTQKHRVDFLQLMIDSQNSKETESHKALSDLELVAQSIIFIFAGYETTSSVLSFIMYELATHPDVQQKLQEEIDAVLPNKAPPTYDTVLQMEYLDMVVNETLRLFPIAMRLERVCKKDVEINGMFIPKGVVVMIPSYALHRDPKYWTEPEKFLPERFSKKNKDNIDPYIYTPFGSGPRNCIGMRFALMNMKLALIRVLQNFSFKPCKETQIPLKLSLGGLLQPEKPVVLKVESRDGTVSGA
protocolDetails: Study 1 (NCT03628339): effect of tepotinib on midazolam pharmacokinetics in healthy participants
particulars: human, plasma, po, 7.5 mg
attributeMeasured: AUC(0-inf) (ng·h/mL)
Lab book: enter the figure in ng·h/mL, no units written.

Request: What value of AUC(0-inf) has been recorded for this entry: Cc1ncc2n1-c1ccc(Cl)cc1C(c1ccccc1F)=NC2
Response: 109
